Target: hT2R54 (Homo sapiens, UniProt P59534)
Construct: expressed in transfected cells; it overexpresses a promiscuous G protein
Sequence (P59534 1-338): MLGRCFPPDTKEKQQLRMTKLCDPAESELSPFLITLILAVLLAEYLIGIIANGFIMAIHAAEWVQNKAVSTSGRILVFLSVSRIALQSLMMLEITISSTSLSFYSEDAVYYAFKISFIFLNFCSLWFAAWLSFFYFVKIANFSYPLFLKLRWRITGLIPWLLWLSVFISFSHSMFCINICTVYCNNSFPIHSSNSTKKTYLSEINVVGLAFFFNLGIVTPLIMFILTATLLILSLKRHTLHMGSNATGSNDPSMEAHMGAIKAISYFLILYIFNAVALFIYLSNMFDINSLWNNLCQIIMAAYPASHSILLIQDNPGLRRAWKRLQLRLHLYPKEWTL
Assay: Cell-based assay for measuring hT2R54 inhibition (FLIPR calcium, Fluo4AM, acetaminophen as bitter agonist)
Settings: Table 5; cells stably expressing hT2R54 and a promiscuous G protein; read-out: hT2R54 IC50
pIC50: −log10 of the molar value.
assay endpoint: pIC50

>  <compound>
CCNC(=O)C1CCN(CC(=O)Nc2cc3c(cc2C(C)=O)OCO3)CC1 [compound 162]

>  <pIC50>
6.13

$$$$

[1] COc1cc2c(cc1NC(=O)CN1CCCC(C(=O)NCc3ccccc3)C1)OCO2 (stereo not drawn) [compound 452]
[2] CC(=O)c1cc2c(cc1NC(=O)CN1CCCC(C(=O)N(C)C)C1)OCO2 (stereo not drawn) [compound 158]
Could you tell me which of these two has the smaller pIC50 figure? First: 1 Second: 2 Write down the label of the entry you select.
1

###

Molecular target: hT2R54 (Homo sapiens)
Construct: expressed in transfected cells; it overexpresses a promiscuous G protein
Sequence (P59534 1-338): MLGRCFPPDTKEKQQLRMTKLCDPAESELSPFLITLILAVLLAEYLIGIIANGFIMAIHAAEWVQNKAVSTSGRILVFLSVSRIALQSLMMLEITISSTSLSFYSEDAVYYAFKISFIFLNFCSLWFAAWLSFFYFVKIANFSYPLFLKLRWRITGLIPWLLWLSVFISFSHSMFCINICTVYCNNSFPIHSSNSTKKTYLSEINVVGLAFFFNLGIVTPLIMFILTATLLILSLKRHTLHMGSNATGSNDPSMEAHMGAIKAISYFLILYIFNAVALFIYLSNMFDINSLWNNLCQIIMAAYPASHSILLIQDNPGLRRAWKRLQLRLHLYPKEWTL
Experiment: Cell-based assay for measuring hT2R54 inhibition (FLIPR calcium, Fluo4AM, acetaminophen as bitter agonist)
Conditions: Table 4; cells stably expressing hT2R54 and a promiscuous G protein; read-out: hT2R54 IC50
assay endpoint: IC50 (nM)

Example entries and their recorded answers appear below.
>  <compound>
CC(=O)c1cc2c(cc1NC(=O)CN1CCC(=O)CC1)OCO2 [compound 421]

>  <result unit>
nM

>  <IC50>
187

$$$$
>  <compound>
COC(=O)c1cc2c(cc1NC(=O)CN1CCOCC1)OCCO2 [compound 438]

>  <result unit>
nM

>  <IC50>
198

$$$$

[1] COC1CCN(CC(=O)Nc2cc3c(cc2C(C)=O)OCO3)CC1 [compound 121]
[2] COc1cc2c(cc1NC(=O)CN1CCOCC1)CCC2 [compound 449]
Could you tell me which of these two has the smaller IC50 figure? First: 1 Second: 2 Write down the label of the entry you select.
1

###

molecular target: hT2R54 (Homo sapiens, UniProt P59534); construct: expressed in transfected cells; it overexpresses a promiscuous G protein; test: Cell-based assay for measuring hT2R54 inhibition (FLIPR calcium, Fluo4AM, acetaminophen as bitter agonist); conditions: Table 2; cells stably expressing hT2R54 and a promiscuous G protein; read-out: hT2R54 IC50
assay endpoint: IC50 (nM)

Example entries and their recorded answers appear below.
>  <compound>
COc1cc2c(cc1NC(=O)CN1CCN(C(=O)c3cccc(F)c3)CC1)OCO2

>  <target or test system>
hT2R54 (Homo sapiens, UniProt P59534)

>  <assay endpoint>
IC50

>  <reported measurement>
600

$$$$
>  <compound>
COc1cc2c(cc1NC(=O)CN1CCN(C(=O)c3ccccc3)CC1)OCO2

>  <target or test system>
hT2R54 (Homo sapiens, UniProt P59534)

>  <assay endpoint>
IC50

>  <reported measurement>
400

$$$$
>  <compound>
COCc1cc(C(=O)N2CCN(CC(=O)Nc3cc4c(cc3OC)OCO4)CC2)no1 [compound 397]

>  <target or test system>
hT2R54 (Homo sapiens, UniProt P59534)

>  <assay endpoint>
IC50

>  <reported measurement>
770

$$$$
>  <compound>
COCC(=O)N1CCN(CC(=O)Nc2cc3c(cc2C(C)=O)OCCO3)CC1

>  <target or test system>
hT2R54 (Homo sapiens, UniProt P59534)

>  <assay endpoint>
IC50

>  <reported measurement>
60

$$$$
>  <compound>
COc1cc2c(cc1NC(=O)CN1CCN(C(=O)c3cccc(O)c3)CC1)OCO2

>  <target or test system>
hT2R54 (Homo sapiens, UniProt P59534)

>  <assay endpoint>
IC50

>  <reported measurement>
430

$$$$
>  <compound>
CC(=O)c1cc2c(cc1NC(=O)CN1CCN(C(C)=O)CC1)OCO2

>  <target or test system>
hT2R54 (Homo sapiens, UniProt P59534)

>  <assay endpoint>
IC50

>  <reported measurement>
90

$$$$
>  <compound>
COc1cc2c(cc1NC(=O)CN1CCN(C(=O)c3ncn[nH]3)CC1)OCO2 [compound 399]

>  <target or test system>
hT2R54 (Homo sapiens, UniProt P59534)

>  <assay endpoint>
IC50

>  <reported measurement>
1400

$$$$
>  <compound>
COc1cc2c(cc1NC(=O)CN1CCN(C(=O)c3cccnc3)CC1)OCO2

>  <target or test system>
hT2R54 (Homo sapiens, UniProt P59534)

>  <assay endpoint>
IC50

>  <reported measurement>
1340

$$$$

[a] CC(=O)c1cc2c(cc1NC(=O)C(C)N1CCN(C(=O)[C@H]3CCCO3)CC1)OCCO2 (stereo partly shown)
[b] CC(=O)c1cc2c(cc1NC(=O)CN1CCN(C(=O)c3ccn(C)c3)CC1)OCO2
[c] COc1cc2c(cc1NC(=O)CN1CCN(C(=O)c3ncn[nH]3)CC1)OCO2 [compound 388]
[d] CC(=O)c1cc2c(cc1NC(=O)CN1CCN(C(=O)c3cc(C)cs3)CC1)OCO2
Order by IC50, ascending. Answer by listing the labels in the order asked for.
b, d, a, c
(b: 30 nM, d: 80 nM, a: 170 nM, c: 2600 nM)

[P] CCCCC(=O)N1CCN(CC(=O)Nc2cc3c(cc2OC)OCO3)CC1
[Q] CC(=O)c1cc2c(cc1NC(=O)CN1CCN(C(=O)c3ncoc3C)CC1)OCO2
Endpoint returns the identifier whose IC50 is numerically larger, either P or Q . Write down the label of the entry you select.
P
(P: 540 nM, Q: 58 nM)

[a] COCc1nc(C(=O)N2CCN(CC(=O)Nc3cc4c(cc3OC)OCO4)CC2)co1
[b] COc1cc2c(cc1NC(=O)CN1CCN(C(=O)C3CCCO3)CC1)OCO2 (stereo not shown)
Could you tell me which of these two has the smaller IC50 figure? First: a Second: b Write down the label of the entry you select.
a

###

target: hT2R54 (Homo sapiens, UniProt P59534); construct: expressed in transfected cells; it overexpresses a promiscuous G protein; assay: Cell-based assay for measuring hT2R54 inhibition (FLIPR calcium, Fluo4AM, acetaminophen as bitter agonist); conditions: Table 8; read-out: hT2R54 IC50
assay endpoint: IC50 (nM)

>  <compound>
CC(=O)c1cc2c(cc1NC(=O)CC1CCCN(S(=O)(=O)CC(C)C)C1)OCO2 (centres unmarked) [compound 226]

>  <assay endpoint>
IC50

>  <result unit>
nM

>  <reported measurement>
160

$$$$

[P] CC(=O)c1cc2c(cc1NC(=O)CC1CCN(C(=O)CC(C)(C)C)C1)OCO2 (centres unmarked) [compound 264]
[Q] COCc1ccc(C(=O)N2CCCC(CC(=O)Nc3cc4c(cc3C(C)=O)OCO4)C2)o1 (centres unmarked) [compound 228]
Endpoint returns the identifier whose IC50 is numerically larger, either P or Q . Write down the label of the entry you select.
P

[A] COCc1ccc(C(=O)N2CCCC(CC(=O)Nc3cc4c(cc3C(C)=O)OCO4)C2)cc1 (centres unmarked) [compound 503]
[B] COCc1ccc(C(=O)N2CCC(CC(=O)Nc3cc4c(cc3C(=O)OC)OCO4)CC2)cc1 [compound 483]
Endpoint returns the identifier whose IC50 is numerically larger, either A or B . Write down the label of the entry you select.
B
(B: 640 nM, A: 99 nM)

[I] CC(=O)c1cc2c(cc1NC(=O)CC1CN(C(=O)c3ccco3)CCO1)OCO2 (centres unmarked) [compound 231]
[II] CC(=O)c1cc2c(cc1NC(=O)CC1CCN(C(=O)c3cc(CO)on3)CC1)OCCO2 [compound 490]
Could you tell me which of these two has the smaller IC50 figure? First: I Second: II Write down the label of the entry you select.
II
